Please go through the items and note down their IC50.
# Tested on: 327498-153-R-J2-PDC multicell spheroid viability;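 also: spheroids exposed to agents for 7 days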
# experimental_details: Anticancer human tumor 327498-153-R-J2-PDC patient-derived uterine carcinosarcoma cell line growth inhibition [IpAb]
# assay_context: curve of first compound; second compound 0.01 µM
# Protocol: Combinatorial screen of targeted agents with ipatasertib and abemaciclib in multi-cell type tumor spheroids […] Compounds. […] If the clinical Cmax for an agent had not been determined, the highest concentration tested was 10 microM. NCI60 Cell Culture. […] The optimal seeding densities for each of the cell lines at each time point assessed were determined prior to performing the concentration response studies. […]
Answers are plain numbers, in nM.

Provide IC50 values for the following items, in order.
1. Cn1ncc(Cl)c1-c1cc(C(=O)NC(CN)Cc2cccc(F)c2)sc1Cl (stereo not given) + CCN1CCN(Cc2ccc(Nc3ncc(F)c(-c4cc(F)c5nc(C)n(C(C)C)c5c4)n3)nc2)CC1
2. CC(C)n1nc(-c2ccc3oc(N)nc3c2)c2c(N)ncnc21 + CCN1CCN(Cc2ccc(Nc3ncc(F)c(-c4cc(F)c5nc(C)n(C(C)C)c5c4)n3)nc2)CC1
3. CC(C)(C)c1cnc(CSc2cnc(NC(=O)C3CCNCC3)s2)o1 + CCN1CCN(Cc2ccc(Nc3ncc(F)c(-c4cc(F)c5nc(C)n(C(C)C)c5c4)n3)nc2)CC1
4. CC1(C)CCC(CN2CCN(c3ccc(C(=O)NS(=O)(=O)c4ccc(NCC5CCOCC5)c([N+](=O)[O-])c4)c(Oc4cnc5[nH]ccc5c4)c3)CC2)=C(c2ccc(Cl)cc2)C1 + CCN1CCN(Cc2ccc(Nc3ncc(F)c(-c4cc(F)c5nc(C)n(C(C)C)c5c4)n3)nc2)CC1

1: 312; 2: 7.33; 3: 142; 4: 5020
